Target: 15-PGDH/HPGD (Homo sapiens (Human))
Test: hPGDH inhibitor screening biochemical assay
Settings: Table 1, PGDH inhibitors with a 6-5 ring core; read-out: hPGDH: IC50
Excerpt: A hydroxyprostaglandin dehydrogenase inhibition screening biochemical assay can be performed to assess the synthesized inhibitors provided herein. Provided herein is an exemplary biochemical assay for hPGDH inhibitor screening. […]
pIC50: −log10 of the molar value.
property.label: pIC50

The following molecules have reported results that may help.
molecule: O=C(c1cnc2c(c1)ncn2-c1cccc(Cl)c1)N1CCCCC1 [drawing 103]
property.label: pIC50
measured: 8.82
--
molecule: O=C(c1ccn2c(-c3cccc(Cl)c3)cnc2c1)N1CCCCC1 [drawing 93]
property.label: pIC50
measured: 8.24
--
molecule: O=C(c1ccc2c(c1)nnn2-c1cccc(Cl)c1)N1CCCCC1 [drawing 108]
property.label: pIC50
measured: 8.51

1: O=C(c1ccc2c(c1)ncn2-c1cccc(Cl)c1)N1CCC(F)(F)C1 [drawing 83]
2: O=C(c1cnc2c(-c3cccc(Cl)c3)cnn2c1)N1CCCCC1 [drawing 107]
Lab note: record which item had the higher pIC50, 1 or 2 . Choose, then provide that item's label. 2

----------
Biological target: 15-PGDH/HPGD (Homo sapiens (Human), UniProt P15428)
Sequence (P15428 whole entry): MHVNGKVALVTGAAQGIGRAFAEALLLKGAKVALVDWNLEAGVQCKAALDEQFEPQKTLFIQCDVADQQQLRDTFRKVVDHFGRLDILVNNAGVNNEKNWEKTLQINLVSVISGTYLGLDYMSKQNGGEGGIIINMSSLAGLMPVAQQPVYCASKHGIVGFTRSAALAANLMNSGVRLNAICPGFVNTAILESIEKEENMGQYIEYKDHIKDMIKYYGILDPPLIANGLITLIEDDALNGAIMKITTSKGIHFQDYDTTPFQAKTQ
Assay: hPGDH inhibitor screening biochemical assay
Details: Table 2, PGDH inhibitors with a phenyl core; read-out: hPGDH: IC50
pIC50: −log10 of the molar value.
property.label: pIC50

Below are worked cases with known answers.
compound: O=C(c1ccc(COc2ccccc2Cl)cc1)N1CCCCC1 [drawing 117]
pIC50: 7.73

compound: COc1ccccc1C(=O)Nc1ccc(C(=O)N2CCCCC2)cc1 [drawing 118]
pIC50: 7.57

compound: COc1ccccc1C(=O)N(C)c1ccc(C(=O)N2CCCCC2)cc1 [drawing 116]
pIC50: 5.64

compound: O=C(c1ccc(COc2ccccc2Br)cc1)N1CCCCC1 [drawing 120]
pIC50: 8.51

1: COc1cccc(C(=O)Nc2ccc(C(=O)N3CCCCC3)cc2)c1
2: COc1cc(C(=O)N2CCCCC2)ccc1COc1ccccc1Cl [drawing 115]
Pick one, 1 or 2 : lowest reported pIC50. // return label of chosen record 1

I: COc1ccccc1NC(=O)c1ccc(C(=O)N2CCCCC2)cc1
II: O=C(Nc1ccc(C(=O)N2CCCCC2)cc1)c1ccccc1Cl
Just tell me: smaller pIC50 value, I or II ? Answer by quoting the chosen item's label. I

----------
Biological target: 15-PGDH/HPGD (Homo sapiens (Human), UniProt P15428)
Assay: hPGDH inhibitor screening biochemical assay
Settings: Table 1, PGDH inhibitors with a 6-5 ring core; read-out: hPGDH: IC50
property.label: IC50 (nM)

The following molecules have reported results that may help.
molecule: O=C(c1ccc2c(c1)ncn2-c1ccc(O)c(Cl)c1)N1CCCCC1 [drawing 82]
u: nM
measured: 2.5
--
molecule: O=C(c1ccc2c(c1)ncn2-c1cccc(Cl)c1)N1CC2(CCC2)C1 [drawing 99]
u: nM
measured: 43.9
--
molecule: COc1ccc(-n2cnc3cc(C(=O)N4CCC(F)CC4)cnc32)cc1 [drawing 79]
u: nM
measured: 19.5
--
molecule: O=C(c1ccc2c(c1)ncn2-c1cccc(Cl)c1)N1CCCCCC1 [drawing 101]
u: nM
measured: 3.2
--
molecule: O=C(c1ccc2c(c1)ncn2-c1cccc(Cl)c1)N1CCC(F)C1 (stereo not drawn)
u: nM
measured: 158
--
molecule: O=C(c1cnc2c(c1)ncn2-c1cccc(Cl)c1)N1CCCCC1 [drawing 106]
u: nM
measured: 12.8
--
molecule: O=C(c1ccc2c(c1)ncn2-c1cccc(Cl)c1)N1CCC(Cl)C1 (stereo not drawn) [drawing 90]
u: nM
measured: 64.7
--
molecule: O=C(c1ccc2c(c1)ncn2-c1cccc(Cl)c1)N1CCC(O)C1 (stereo not drawn) [drawing 84]
u: nM
measured: 2870
--
molecule: O=C(c1ccc2c(ccn2-c2cccc(Cl)c2)c1)N1CCCCC1 [drawing 112]
u: nM
measured: 0.5
--
molecule: O=C(c1ccc2c(c1)ncn2-c1cccc(Cl)c1)N1CC2CCC(C2)C1 [drawing 97]
u: nM
measured: 46.6

A: O=C1CCN(C(=O)c2ccc3c(c2)ncn3-c2cccc(Cl)c2)C1 [drawing 88]
B: NC(=O)Cc1nc2cc(C(=O)N3CCCCC3)ccc2n1-c1cccc(Cl)c1
Consider A and B . Which of these has its IC50 at a higher number? Please reply using the label of the selected record. A
(A: 4540 nM, B: 576 nM)
